The measurements presented in this section are drawn from patent US20200008426A1.

experiment.notes: LogP by HPLC on reversed phase columns (EEC directive 79/831 Annex V.A8)
experimental.setup: Table 1, formula (I); LC-UV, acidic range, 0.1% formic acid in water and acetonitrile
measured.quantity: LogP [a]

Recorded results for 5 compounds are shown here.
> print(dat)
                                   compound  measured.quantity  assay.result
1  OC(Cn1cncn1)c1ccc(Oc2ccc(OC(F)(F)F)c(Cl)c2)nc1Cl (centres unmarked)           LogP [a]      3.11^[a]
2  OC(Cn1cncn1)c1cnc(Oc2ccc(C(F)(F)F)cc2)cc1C(F)(F)F (single isomer, unassigned) [I.72]           LogP [a]      2.86^[a]
3  OC(Cn1cncn1)c1ccc(Oc2ccccc2)nc1Cl (centres unmarked)           LogP [a]      1.98^[a]
4  OC(Cn1cncn1)c1ccc(Oc2ccc(Cl)c(Cl)c2)nc1Cl (centres unmarked)           LogP [a]      2.80^[a]
5  CCC(O)(Cn1cncn1)c1ccc(Oc2ccc(Cl)cc2)nc1C(F)(F)F (racemic)           LogP [a]      3.19^[a]

Noted for OC(Cn1cncn1)(c1ccc(Oc2ccc(Br)cc2)nc1C(F)(F)F)C(F)(F)F (centres unmarked) : its LogP [a] reads 3.48^[a]

Noted for CCCCC(O)(Cn1cncn1)c1ccc(Oc2ccc(Cl)cc2)nc1C(F)(F)F (racemic) : its LogP [a] reads 3.87^[a]

Noted for COc1ccc(Oc2ccc(C(O)Cn3cncn3)c(Cl)n2)c(Cl)c1 (centres unmarked) : its LogP [a] reads 2.32^[a]
